testedOn: recombinant hSSAO (Homo sapiens (Human))
Sequence (Q16853 whole entry): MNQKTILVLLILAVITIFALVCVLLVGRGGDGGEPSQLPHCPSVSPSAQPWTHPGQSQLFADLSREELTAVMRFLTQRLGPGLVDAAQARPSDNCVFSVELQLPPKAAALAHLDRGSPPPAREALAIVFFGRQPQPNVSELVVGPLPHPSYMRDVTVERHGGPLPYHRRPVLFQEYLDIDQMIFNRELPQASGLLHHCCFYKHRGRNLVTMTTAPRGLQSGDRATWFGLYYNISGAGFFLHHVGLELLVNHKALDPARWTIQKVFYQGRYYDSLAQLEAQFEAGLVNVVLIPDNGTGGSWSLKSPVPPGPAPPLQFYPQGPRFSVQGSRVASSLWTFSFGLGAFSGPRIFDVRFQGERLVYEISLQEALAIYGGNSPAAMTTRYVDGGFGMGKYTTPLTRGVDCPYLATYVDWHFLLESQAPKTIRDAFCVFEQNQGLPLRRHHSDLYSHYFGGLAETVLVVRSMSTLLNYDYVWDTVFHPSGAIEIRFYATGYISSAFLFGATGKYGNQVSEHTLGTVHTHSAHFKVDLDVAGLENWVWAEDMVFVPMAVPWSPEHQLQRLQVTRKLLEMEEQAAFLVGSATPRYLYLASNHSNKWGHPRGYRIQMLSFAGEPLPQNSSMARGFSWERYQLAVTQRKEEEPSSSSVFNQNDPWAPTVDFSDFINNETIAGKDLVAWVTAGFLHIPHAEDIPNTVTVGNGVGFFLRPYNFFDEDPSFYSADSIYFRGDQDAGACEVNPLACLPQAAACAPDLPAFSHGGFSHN
testDetails: SSAO Activity Assay (MAO-Glo assay kit)
conditionSet: 40 μM substrate, 30 mins pre-incubation
readoutLabel: IC50

molecule: CC1(C)COC(CS(=O)(=O)c2ccc(OC/C(=C/F)CN)cc2)CO1 (stereo not drawn) [compound 2]
result: 20 to 100 nM
--
molecule: NC/C(=C\F)COc1ccc(S(=O)(=O)CN2CCCC2=O)cc1 [compound 117]
result: 100 to 500 nM

Please look at the following molecule next.
(Q) Need IC50 of CC(C)(C)NC(=O)C12CCC(CS(=O)(=O)c3ccc(OC/C(=C/F)CN)cc3)(CC1)CC2 [Compound 70] , thanks.
(A) 20 to 100 nM
